system: Escherichia coli; experiment: Antibacterial activity against Escherichia coli 14-2 after 18 to 24 hrs; format: functional
measured_parameter: MIC (µg/mL)

| compound | relation | quantitative_result |
| --- | --- | --- |
| NCC1CN(c2nc3c(cc2F)c(=O)c(C(=O)O)cn3[C@@H]2C[C@@H]2F)C/C1=N\OCc1ccc(OC(F)(F)F)cc1 (stereo partly drawn) | = | 128 |
| CCO/N=C1\CN(c2nc3c(cc2F)c(=O)c(C(=O)O)cn3[C@@H]2C[C@@H]2F)CC1(C)CN (stereo partly drawn) | = | 32 |
| NCC1CN(c2nc3c(cc2F)c(=O)c(C(=O)O)cn3[C@@H]2C[C@@H]2F)C/C1=N\OCc1ccc(Cl)cc1 (stereo partly drawn) | = | 32 |
| COc1cc(CO/N=C2\CN(c3nc4c(cc3F)c(=O)c(C(=O)O)cn4[C@@H]3C[C@@H]3F)CC2CN)cc(OC)c1 (stereo partly drawn) | > | 128 |
| NCC1CN(c2nc3c(cc2F)c(=O)c(C(=O)O)cn3[C@@H]2C[C@@H]2F)C/C1=N\OCc1ccc(Br)cc1 (stereo partly drawn) | = | 64 |
| CC1(CN)CN(c2nc3c(cc2F)c(=O)c(C(=O)O)cn3[C@@H]2C[C@@H]2F)C/C1=N\OCc1ccccc1 (stereo partly drawn) | > | 128 |
| COc1cccc(CO/N=C2\CN(c3nc4c(cc3F)c(=O)c(C(=O)O)cn4[C@@H]3C[C@@H]3F)CC2CN)c1OC (stereo partly drawn) | = | 128 |
| Cc1ccc(CO/N=C2\CN(c3nc4c(cc3F)c(=O)c(C(=O)O)cn4[C@@H]3C[C@@H]3F)CC2CN)cc1 (stereo partly drawn) | = | 32 |

---

system: Staphylococcus epidermidis; assay: Antibacterial activity against methicillin-sensitive Staphylococcus epidermidis 14-2 after 18 to 24 hrs; type: functional

| compound | relation | MIC, mg/L |
| --- | --- | --- |
| CO/N=C1\CN(c2nc3c(cc2F)c(=O)c(C(=O)O)cn3[C@@H]2C[C@@H]2F)CC1(C)CN (stereo partly drawn) | = | 16 |
| O=C(O)c1cn(C2CC2)c2cc(N3CCNCC3)c(F)cc2c1=O | > | 128 |
| COc1cc(CO/N=C2\CN(c3nc4c(cc3F)c(=O)c(C(=O)O)cn4[C@@H]3C[C@@H]3F)CC2CN)cc(OC)c1 (stereo partly drawn) | = | 16 |
| NCC1CN(c2nc3c(cc2F)c(=O)c(C(=O)O)cn3[C@@H]2C[C@@H]2F)C/C1=N\OCc1ccc2c(c1)OCO2 (stereo partly drawn) | = | 32 |
| COc1cccc(CO/N=C2\CN(c3nc4c(cc3F)c(=O)c(C(=O)O)cn4[C@@H]3C[C@@H]3F)CC2CN)c1OC (stereo partly drawn) | = | 32 |
| CO/N=C1\CN(c2nc3c(cc2F)c(=O)c(C(=O)O)cn3[C@@H]2C[C@@H]2F)CC1N (stereo partly drawn) | = | 128 |
| COc1ccc(CO/N=C2\CN(c3nc4c(cc3F)c(=O)c(C(=O)O)cn4[C@@H]3C[C@@H]3F)CC2CN)cc1 (stereo partly drawn) | = | 32 |
| Cc1ccc(CO/N=C2\CN(c3nc4c(cc3F)c(=O)c(C(=O)O)cn4[C@@H]3C[C@@H]3F)CC2CN)cc1 (stereo partly drawn) | = | 8 |

---

system: Enterococcus faecalis; experiment: Antibacterial activity against Enterococcus faecalis 14-2 after 18 to 24 hrs; format: functional
measured_parameter: MIC (µg/mL)

| molecule | system | measured_parameter | quantitative_result |
| --- | --- | --- | --- |
| NCC1CN(c2nc3c(cc2F)c(=O)c(C(=O)O)cn3[C@@H]2C[C@@H]2F)C/C1=N\OCc1ccc(OC(F)(F)F)cc1 (some centres undefined) | Enterococcus faecalis | MIC | 0.5 |
| CO/N=C1\CN(c2nc3c(cc2F)c(=O)c(C(=O)O)cn3[C@@H]2C[C@@H]2F)CC1N (some centres undefined) | Enterococcus faecalis | MIC | 2 |
| C[C@H]1COc2c(N3CCN(C)CC3)c(F)cc3c(=O)c(C(=O)O)cn1c23.C[C@H]1COc2c(N3CCN(C)CC3)c(F)cc3c(=O)c(C(=O)O)cn1c23.O | Enterococcus faecalis | MIC | 1 |
| NC1CN(c2nc3c(cc2F)c(=O)c(C(=O)O)cn3[C@@H]2C[C@@H]2F)C/C1=N\OCc1ccccc1 (some centres undefined) | Enterococcus faecalis | MIC | 1 |

---

system: Pseudomonas aeruginosa; test: Antibacterial activity against Pseudomonas aeruginosa 14-9 after 18 to 24 hrs; format: functional
Recorded MIC values for a group of compounds are listed next.

| compound | uom | MIC |
| --- | --- | --- |
| NCC1CN(c2nc3c(cc2F)c(=O)c(C(=O)O)cn3[C@@H]2C[C@@H]2F)C/C1=N\OCc1ccc2c(c1)OCO2 (stereo partly specified) | µg/mL | 8 |
| NCC1CN(c2nc3c(cc2F)c(=O)c(C(=O)O)cn3[C@@H]2C[C@@H]2F)C/C1=N\OCc1ccc(Cl)cc1 (stereo partly specified) | µg/mL | 4 |
| NCC1CN(c2nc3c(cc2F)c(=O)c(C(=O)O)cn3[C@@H]2C[C@@H]2F)C/C1=N\OCc1ccc(F)cc1 (stereo partly specified) | µg/mL | 8 |
| CCO/N=C1\CN(c2nc3c(cc2F)c(=O)c(C(=O)O)cn3[C@@H]2C[C@@H]2F)CC1(C)N (stereo partly specified) | µg/mL | 16 |
| CCO/N=C1\CN(c2nc3c(cc2F)c(=O)c(C(=O)O)cn3[C@@H]2C[C@@H]2F)CC1(C)CN (stereo partly specified) | µg/mL | 4 |
| COc1ccc(CO/N=C2\CN(c3nc4c(cc3F)c(=O)c(C(=O)O)cn4[C@@H]3C[C@@H]3F)CC2CN)cc1 (stereo partly specified) | µg/mL | 8 |
| COc1cccc(CO/N=C2\CN(c3nc4c(cc3F)c(=O)c(C(=O)O)cn4[C@@H]3C[C@@H]3F)CC2CN)c1OC (stereo partly specified) | µg/mL | 8 |
| CC1(N)CN(c2nc3c(cc2F)c(=O)c(C(=O)O)cn3[C@@H]2C[C@@H]2F)C/C1=N\OCc1ccccc1 (stereo partly specified) | µg/mL | 64 |
| NCC1CN(c2nc3c(cc2F)c(=O)c(C(=O)O)cn3[C@@H]2C[C@@H]2F)C/C1=N\OCc1ccc(Br)cc1 (stereo partly specified) | µg/mL | 8 |
| CO/N=C1\CN(c2nc3c(cc2F)c(=O)c(C(=O)O)cn3[C@@H]2C[C@@H]2F)CC1(C)CN (stereo partly specified) | µg/mL | 4 |
| CO/N=C1\CN(c2nc3c(cc2F)c(=O)c(C(=O)O)cn3[C@@H]2C[C@@H]2F)CC1N (stereo partly specified) | µg/mL | 8 |
| CO/N=C1\CN(c2nc3c(cc2F)c(=O)c(C(=O)O)cn3[C@@H]2C[C@@H]2F)CC1(C)N (stereo partly specified) | µg/mL | 16 |
| CC1(CN)CN(c2nc3c(cc2F)c(=O)c(C(=O)O)cn3[C@@H]2C[C@@H]2F)C/C1=N\OCc1ccccc1 (stereo partly specified) | µg/mL | 16 |
| NCC1CN(c2nc3c(cc2F)c(=O)c(C(=O)O)cn3[C@@H]2C[C@@H]2F)C/C1=N\OCc1ccc([N+](=O)[O-])cc1 (stereo partly specified) | µg/mL | 4 |
| COc1c(N2C[C@@H]3CCCN[C@@H]3C2)c(F)cc2c(=O)c(C(=O)O)cn(C3CC3)c12 [MOXIFLOXACIN] | µg/mL | 4 |
| COc1cc(CO/N=C2\CN(c3nc4c(cc3F)c(=O)c(C(=O)O)cn4[C@@H]3C[C@@H]3F)CC2CN)cc(OC)c1 (stereo partly specified) | µg/mL | 32 |

---

tested on: Klebsiella pneumoniae; assay: Antibacterial activity against Klebsiella pneumoniae 14-2 after 18 to 24 hrs; assay type: functional
measured_parameter: MIC

| compound | system | result |
| --- | --- | --- |
| CCO/N=C1\CN(c2nc3c(cc2F)c(=O)c(C(=O)O)cn3[C@@H]2C[C@@H]2F)CC1(C)N (stereo partly specified) | Klebsiella pneumoniae | > 128 µg/mL |
| CO/N=C1\CN(c2nc3c(cc2F)c(=O)c(C(=O)O)cn3[C@@H]2C[C@@H]2F)CC1(C)N (stereo partly specified) | Klebsiella pneumoniae | > 128 µg/mL |
| COc1cccc(CO/N=C2\CN(c3nc4c(cc3F)c(=O)c(C(=O)O)cn4[C@@H]3C[C@@H]3F)CC2CN)c1OC (stereo partly specified) | Klebsiella pneumoniae | 128 µg/mL |
| NC1CN(c2nc3c(cc2F)c(=O)c(C(=O)O)cn3[C@@H]2C[C@@H]2F)C/C1=N\OCc1ccccc1 (stereo partly specified) | Klebsiella pneumoniae | > 128 µg/mL |
| CO/N=C1\CN(c2nc3c(cc2F)c(=O)c(C(=O)O)cn3[C@@H]2C[C@@H]2F)CC1N (stereo partly specified) | Klebsiella pneumoniae | 128 µg/mL |
| CC1(CN)CN(c2nc3c(cc2F)c(=O)c(C(=O)O)cn3[C@@H]2C[C@@H]2F)C/C1=N\OCc1ccccc1 (stereo partly specified) | Klebsiella pneumoniae | > 128 µg/mL |
